Target: GST-CIB1 : F-scrambled peptide (Homo sapiens, UniProt Q99828)
Construct: made in house; host or cells: BL-21 plus RIL cells (E. coli)
Sequence (Q99828 1-191): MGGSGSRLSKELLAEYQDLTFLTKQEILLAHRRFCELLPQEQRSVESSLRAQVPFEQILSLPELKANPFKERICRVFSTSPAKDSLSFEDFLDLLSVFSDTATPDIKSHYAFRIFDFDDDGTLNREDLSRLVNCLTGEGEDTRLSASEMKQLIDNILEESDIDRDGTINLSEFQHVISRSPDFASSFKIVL
Assay: FP scrambled-peptide counter screen, 1536-well format
Type: binding
Conditions: Table S3, counterscreen; read-out: IC50 [μM] (counterscreen)
Kindly supply the reported IC50 values for the records listed here.
Give the value in µM but do not write µM after it.

-- ask What value of measured IC50 is listed for COc1ccc2nc3[nH]nc(C)c3c(NCCOCCO)c2c1 ?
-- reply 89.1

-- ask Also CC(=O)Nc1sc2c(c1-c1nc3ccccc3o1)CCN(C(C)C)C2.O=C(O)C(F)(F)F ?
-- reply 50.1

-- ask Also O=C([O-])c1c(Cl)c(Cl)c(Cl)c(Cl)c1-c1c2cc(I)c(=O)c(I)c-2oc2c(I)c(O)c(I)cc12.[Na+] ?
-- reply 44.7

-- ask Also COC(=O)c1scc2c(O)cc(C(F)(F)F)nc12 ?
-- reply 79.4

-- ask Also Cc1c(Cc2ccc3ccccc3n2)c2cc(F)ccc2n1CC(=O)O ?
-- reply 44.7

-- ask Also CC(C)Oc1cccc(NC(=O)c2ccccc2C(F)(F)F)c1 ?
-- reply 39.8

-- ask Also CN(CC(=O)Nc1ccc(N2CCOCC2)cc1)Cc1c(O)ccc2ccccc12.O=C(O)C(F)(F)F ?
-- reply 70.8

-- ask Also O=C(Cc1ccccc1)NC(c1ccco1)c1cc(Cl)c2cccnc2c1O.O=C(O)C(F)(F)F (stereo not shown) ?
-- reply 89.1

-- ask Also CN(C)CCCCCCNC(=O)c1cccc(-c2cc(O)c3ncccc3c2)c1.O=C(O)C(F)(F)F ?
-- reply 44.7

-- ask Also NS(=O)(=O)c1ccc(Cc2c(-c3ccc(F)c(-c4ccc(F)cc4)c3)nn(-c3nc(C(=O)O)cs3)c2C2CC2)cc1F.O=C(O)C(F)(F)F ?
-- reply 79.4

-- ask Also Nc1nc2c(s1)C(c1ccccc1)CC(=O)N2 (stereo not shown) ?
-- reply 39.8

-- ask Also CC(=O)Nc1sc2c(c1-c1nc3ccccc3s1)CNC2.O=C(O)C(F)(F)F ?
-- reply 50.1

-- ask Also O=C(NC(c1ccco1)c1cc(Cl)c2cccnc2c1O)c1cccs1.O=C(O)C(F)(F)F (stereo not shown) ?
-- reply 50.1

-- ask Also O=C(O)C(F)(F)F.O=C1Nc2ccccc2/C1=N/NC(=S)Nc1ccc(O)cc1 ?
-- reply 6.3

-- ask Also CC(C)c1nc(Nc2nc3ccccc3o2)nc2c1CCCC2.O=C(O)C(F)(F)F ?
-- reply 22.4

-- ask Also O=C(NCCCN1CCNCC1)c1cccc(-c2cc(O)c3ncccc3c2)c1.O=C(O)C(F)(F)F ?
-- reply 35.5

-- ask Also O=C(O)C(F)(F)F.O=S(=O)(NCc1nccs1)c1ccc(Nc2nc(-c3ccccc3)cs2)cc1 ?
-- reply 50.1

-- ask Also OCc1ccc(-c2ccc(-c3ccc(CO)s3)o2)s1 ?
-- reply 50.1

-- ask Also Cc1coc2c1C(=O)C(=O)c1c-2ccc2c1CCCC2(C)C ?
-- reply 39.8

-- ask Also Cn1cc(-c2[nH]c3cc(NC(=O)[C@H](N)C4CCCCC4)cc4c3c2C=NNC4=O)cn1 ?
-- reply 79.4

-- ask Also O=C(O)C(F)(F)F.O=S(=O)(Nc1nccs1)c1ccc(Nc2nc(-c3ccccc3)cs2)cc1 ?
-- reply 50.1

-- ask Also NC(=O)C1CCN(c2nc(-c3ccccc3N)cs2)CC1.O=C(O)C(F)(F)F ?
-- reply 28.2

-- ask Also Cc1cc(C(C#N)c2ccc(Cl)cc2)c(Cl)cc1NC(=O)c1cc(I)cc(I)c1O (stereo not shown) ?
-- reply 31.6

-- ask Also O=C(O)C(F)(F)F.O=C(c1ccc(-c2cc(O)c3ncccc3c2)cc1)N1CCNCC1 ?
-- reply 35.5

-- ask Also CS(=O)(=O)c1ccc(C(=O)OCC(=O)N2CCN(CCC3CCCCC3)CC2)cc1[N+](=O)[O-].O=C(O)C(F)(F)F ?
-- reply 39.8

-- ask Also COc1ccc2[nH]c([S+]([O-])Cc3ncc(C)c(OC)c3C)nc2n1 (stereo not shown) ?
-- reply 44.7

-- ask Also O=C(O)C(F)(F)F.O=C1Nc2ccccc2/C1=N/NC(=S)Nc1ccc(Oc2ccccc2)cc1 ?
-- reply 4

-- ask Also C/C(=C\c1ccc2c(c1)OCO2)C1Nc2cccc3cccc(c23)N1 ?
-- reply 12.6

-- ask Also CCCCCCCCn1cc(CC(N)=O)c2cc(-c3cccc(C)c3)ccc21.O=C(O)C(F)(F)F ?
-- reply 39.8

-- ask Also Cc1ccc(S(=O)(=O)Nc2cc3c(cc2C(=O)Nc2nc(-c4ccccc4)cs2)OCO3)cc1.O=C(O)C(F)(F)F ?
-- reply 44.7

-- ask Also O=C1c2ccccc2C(=O)c2c1ccc(O)c2O ?
-- reply 22.4
